Entries with their measured pIC50, system Receptor tyrosine-protein kinase erbB-2 (Homo sapiens, UniProt P04626):
pIC50: −log10 of the molar value.
observedProperty: pIC50

Measured pIC50 of `Cc1ccc(NC(=O)CSc2nc3cc4ccccc4cc3c(=O)n2-c2ccc(S(N)(=O)=O)cc2)cc1` : 7.68

pIC50 reading for `Cc1ccccc1NC(=O)CSc1nc2cc3ccccc3cc2c(=O)n1-c1ccc(S(N)(=O)=O)cc1` : 7.68

---

pIC50: −log10 of the molar value.
Target or system Epidermal growth factor receptor (Homo sapiens, UniProt P00533); recorded quantity pIC50.
observedProperty: pIC50

(1) NS(=O)(=O)c1ccc(CCn2c(SCC(=O)Nc3ccc(Cl)cc3)nc3ccccc3c2=O)cc1
(2) COc1cc2ncnc(Nc3ccc(OCCn4ccnc4[N+](=O)[O-])c(Cl)c3)c2cc1OCCCN1CCOCC1
[ask] Dear colleague, could you let me know whether 1 or 2 has the lower recorded pIC50? Thanks. Write down the label of the entry you select.
[reply] 1
